Test system: secreted phospholipase B (PLB activity)
Assay Method Text: Radiometric assay, secreted PLB activity
Assay type: biochemical, Cryptococcus neoformans H99
Condition Notes: 250 μM; Secretory Cryptococcal H99 Phospholipase
Method: Fungal isolates and media. […] Isolate H99 was kindly supplied by Dr. Gary Cox (Duke University Medical Center, Durham, N.C., USA), and subcultured onto Sabouraud dextrose agar (SDA) at 30° C. […] Radiometric assay method for phospholipases. Enzyme activities were measured as described previously in a final volume of 125 μL at 37° C. […] These activities were measured by the appearance of radiolabel from PC in Lyso PC, diacylglycerol and phosphatidic acid, respectively. […]
I'd be grateful if you could share measured PLB, percentage inhibition of activity for these entries.

Molecule: CCCC[P+](CCCC)(CCCC)CCCCCCCCCCCC[P+](CCCC)(CCCC)CCCC
PLB, percentage inhibition of activity: 55%

Look at each molecule and report its PLB, percentage inhibition of activity.
1. CCCC[N+](CCCC)(CCCC)CCCCCCCCCCCC[N+](CCCC)(CCCC)CCCC
2. C[N+](C)(C)CCCCCCCCCC[N+](C)(C)C [Compound 4, reference compound]

85%
0%

Recorded PLB, percentage inhibition of activity for CCCC[N+](CCCC)(CCCC)CCCCCCCCCC[N+](CCCC)(CCCC)CCCC , please? 90%

---

System: secreted phospholipase B (PLB activity)
Assay Method Text: Radiometric assay, secreted PLB activity
Assay type: biochemical, Cryptococcus neoformans H99
Condition Notes: 250 μM
Result Type: PLB assay (% inhibition) (%)
Answers are plain numbers, in %.

Worked examples, 3 compounds total:
Compound: CCCC[P+](CCCC)(CCCC)CCCCCCCCCCCC[P+](CCCC)(CCCC)CCCC
Endpoint Result: 55
//
Compound: CCC[N+](CCC)(CCC)CCCCCCCCCCCC[N+](CCC)(CCC)CCC
Endpoint Result: 80
//
Compound: C[N+](C)(C)CCCCCCCCCCCC[N+](C)(C)C
Endpoint Result: 3

// PLB assay (% inhibition) lookup, key: C[N+]1(CCCCCCCCCCCC[N+]2(C)CCCC2)CCCC1 [C12-bis-N-methyl-pyro. dibromide] 9

---

System: secreted phospholipase B (LPL/LPTA activities)
Assay Method Text: Radiometric assay, secreted LPL and LPTA activities (Lyso assay)
Type: biochemical, Cryptococcus neoformans H99
Condition Notes: 25 μM
Result Type: Lyso assay (% inhibition) LPL

Lab note: need Lyso assay (% inhibition) LPL with secreted phospholipase B (LPL/LPTA activities) for entry CCCC[P+](CCCC)(CCCC)CCCCCCCCCCCC[P+](CCCC)(CCCC)CCCC , please look it up. 0%

---

Could you please report measured Lyso assay (% inhibition) LPTA for the items listed next?
Tested on: secreted phospholipase B (LPL/LPTA activities)
Assay Method Text: Radiometric assay, secreted LPL and LPTA activities (Lyso assay)
Format: biochemical, Cryptococcus neoformans H99
Condition Notes: 25 μM
Numbers only, in %.

Answered cases to consult:
Query Smiles: CC(C)C[N+](CCCCCCCCCCCC[N+](CC(C)C)(CC(C)C)CC(C)C)(CC(C)C)CC(C)C.[Br-].[Br-]
Result Type: Lyso assay (% inhibition) LPTA
Reading Unit: %
Endpoint Result: 4

Query Smiles: CCCCCCCCCCCCCCCC[P+](CCCC)(CCCC)CCCC
Result Type: Lyso assay (% inhibition) LPTA
Reading Unit: %
Endpoint Result: 5

Moving on to another compound below.
Would you kindly share the measured Lyso assay (% inhibition) LPTA for CCC[N+](CCC)(CCC)CCCCCCCCCCCC[N+](CCC)(CCC)CCC ? 20
